# system_under_test: PhnI (C-P lyase nucleosidase) (Escherichia coli)
# Sequence (P16687 whole entry): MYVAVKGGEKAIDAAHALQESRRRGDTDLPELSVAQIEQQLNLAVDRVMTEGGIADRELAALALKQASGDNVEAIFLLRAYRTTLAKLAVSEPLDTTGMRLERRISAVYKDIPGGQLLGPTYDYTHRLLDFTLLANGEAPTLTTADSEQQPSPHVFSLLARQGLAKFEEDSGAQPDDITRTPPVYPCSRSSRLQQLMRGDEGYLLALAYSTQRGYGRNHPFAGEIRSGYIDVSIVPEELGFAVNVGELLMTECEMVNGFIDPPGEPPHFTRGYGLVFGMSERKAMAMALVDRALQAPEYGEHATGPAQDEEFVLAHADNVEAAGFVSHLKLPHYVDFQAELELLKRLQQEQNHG
metric_name: Kd (nM)
// return numeric value only (unit: nM, not printed)

-- ask Field: Kd (PhnI (C-P lyase nucleosidase) (Escherichia coli)). Entry: Nc1ncnc2c([C@@H]3N[C@H](COP(=O)(O)OP(=O)(O)OP(=O)(O)O)[C@@H](O)[C@H]3O)c[nH]c12 [ImmA-TP, Immucillin-A triphosphate]
-- reply 20
